- Test system: human umbilical vein endothelial cells (HUVECs)
- test-details: 3D in vitro endothelial sprouting and tube formation assay
- Assay type: cell-based
- measurement-setup: Homo sapiens, HUVEC, 3D-HUVEC sprouting assay; read-out: IC50 (concentration of drug which inhibits by 50% the endothelial sprouting)
IC50 values for the molecules below.
Field format: number, assumed µM, no unit text.

Completed entries (count: 2):
[
  {
    "molecule": "CN(C(=O)c1c(O)c2c(O)cccc2n(C)c1=O)c1ccc(C(F)(F)F)cc1 [Quinoline-O-demethylate]",
    "value-reported": 30
  },
  {
    "molecule": "COc1cccc2[nH]c(=O)c(C(=O)N(C)c3ccc(C(F)(F)F)cc3)c(O)c12 [Quinoline-N-demethylate]",
    "value-reported": 20
  }
]

Recall and state the measured IC50 for COc1cccc2c1c(O)c(C(=O)Nc1ccc(C(F)(F)F)cc1)c(=O)n2C [Carboxamide-N-demethylate] .
0.25

* * *

- test-details: Protein binding fraction (PBF) in human plasma
- Format: in vitro ADME
- measurement-setup: 1-50 μM radiolabeled tasquinimod
recorded-metric: fraction unbound

Return fraction unbound (reported value) for this compound: `COc1cccc2c1c(O)c(C(=O)N(C)c1ccc(C(F)(F)F)cc1)c(=O)n2C`
~0.02

* * *

- test-details: Protein binding fraction (PBF) in bovine fetal serum
- Type: in vitro ADME
- measurement-setup: bovine fetal serum (FBS), 1-50 μM radiolabeled tasquinimod
recorded-metric: fraction unbound

Please list fraction unbound recorded for the molecule `COc1cccc2c1c(O)c(C(=O)N(C)c1ccc(C(F)(F)F)cc1)c(=O)n2C`
~0.02

* * *

Reported concentration at 4 h values are given for each entry in this list.
- test-details: Tissue distribution and metabolites in nude mice bearing CWR-22Rv1 cancers
- Type: in vivo, mouse
- measurement-setup: male, nude, mouse; kidney, 4 hours post oral 5mg/kg tasquinimod, 1gm tissue = 1ml; read-out: concentration in kidney
Output spec: scalar in nM, unitless text.

[
  {
    "compound": "COc1cccc2c1c(O)c(C(=O)N(C)c1ccc(C(F)(F)F)cc1)c(=O)n2C",
    "concentration at 4 h [nM]": 2300
  }
]

As a next step, examine the compound that follows.
Tell me its concentration at 4 h given CN(C(=O)c1c(O)c2c(O)cccc2n(C)c1=O)c1ccc(C(F)(F)F)cc1 [Quinoline-O-demethylate] as the entry.
1400

* * *

- system-tested: human albumin (Homo sapiens)
- Construct: purchased Sigma
- Sequence (P02768 25-609): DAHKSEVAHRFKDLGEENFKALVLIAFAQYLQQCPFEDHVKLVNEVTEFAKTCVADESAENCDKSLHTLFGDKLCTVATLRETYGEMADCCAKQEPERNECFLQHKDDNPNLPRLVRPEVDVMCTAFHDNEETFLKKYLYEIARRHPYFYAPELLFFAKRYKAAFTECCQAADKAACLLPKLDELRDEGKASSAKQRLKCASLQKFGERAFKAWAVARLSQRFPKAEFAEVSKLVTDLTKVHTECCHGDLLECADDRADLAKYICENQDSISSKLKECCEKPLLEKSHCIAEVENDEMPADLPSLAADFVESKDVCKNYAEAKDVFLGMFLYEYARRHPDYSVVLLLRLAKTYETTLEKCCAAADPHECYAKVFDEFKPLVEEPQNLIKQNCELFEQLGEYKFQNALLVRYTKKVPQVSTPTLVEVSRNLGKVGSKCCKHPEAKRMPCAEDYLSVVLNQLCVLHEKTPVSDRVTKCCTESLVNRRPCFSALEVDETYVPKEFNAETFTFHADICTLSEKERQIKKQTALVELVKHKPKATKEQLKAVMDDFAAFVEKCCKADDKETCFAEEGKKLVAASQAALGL
- test-details: Equilibrium dialysis binding to human albumin
- measurement-setup: pH 7.4, equilibrium dialysis, read-out: equilibrium dissociation constant (Kd)
recorded-metric: Kd (µM)
Write the answer as a number in µM, unit excluded.

Note Kd for the compound shown: COc1cccc2c1c(O)c(C(=O)N(C)c1ccc(C(F)(F)F)cc1)c(=O)n2C [Tasquinimod]
24

* * *

- system-tested: mouse albumin (Mus musculus, UniProt P07724)
- Sequence (P07724 25-608): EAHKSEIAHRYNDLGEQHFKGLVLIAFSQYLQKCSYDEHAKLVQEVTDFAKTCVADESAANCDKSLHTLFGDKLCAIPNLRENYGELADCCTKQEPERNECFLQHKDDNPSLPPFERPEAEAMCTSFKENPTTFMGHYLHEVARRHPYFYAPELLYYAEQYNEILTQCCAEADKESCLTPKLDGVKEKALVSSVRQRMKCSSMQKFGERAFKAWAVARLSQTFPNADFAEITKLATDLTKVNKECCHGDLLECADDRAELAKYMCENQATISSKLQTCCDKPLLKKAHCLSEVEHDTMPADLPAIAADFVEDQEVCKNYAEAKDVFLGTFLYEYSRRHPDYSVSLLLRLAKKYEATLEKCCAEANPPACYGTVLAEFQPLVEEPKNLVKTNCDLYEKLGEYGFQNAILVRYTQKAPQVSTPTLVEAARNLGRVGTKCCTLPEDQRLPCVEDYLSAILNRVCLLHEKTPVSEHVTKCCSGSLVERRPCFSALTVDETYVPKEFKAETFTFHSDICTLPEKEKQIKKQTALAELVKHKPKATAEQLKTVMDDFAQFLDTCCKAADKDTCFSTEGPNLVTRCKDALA
recorded-metric: pKd
# pKd = -log10(concentration in molar units)

Lab note: record pKd of COc1cccc2c1c(O)c(C(=O)N(C)c1ccc(C(F)(F)F)cc1)c(=O)n2C [Tasquinimod] tested on mouse albumin (Mus musculus, UniProt P07724).
4.80

* * *

- test-details: Plasma pharmacokinetics after oral gavage in nude mice bearing CWR-22Rv1 xenografts
- Type: in vivo, mouse
- measurement-setup: male, nude, mouse, plasma; 5 mg/kg oral; read-out: total plasma Cmax
recorded-metric: Cmax

Entry COc1cccc2c1c(O)c(C(=O)N(C)c1ccc(C(F)(F)F)cc1)c(=O)n2C [Tasquinimod] needs its Cmax filled in; supply it.
~12 µM
